System: WSU-DLCL2 (B-Cell Non-Hodgkin's Lymphoma)
Experiment: Bliss excess, mean over the matrix (fraction); higher = more synergy;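 also: after 72 h of two-drug dosing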
RESULT TYPE: Bliss excess
Answers are plain numbers.

For every item below, please supply its Bliss excess.
1. CN(C)CCCOc1ccc(-c2ccc3ncc4c(c3c2)n(C2CCOCC2)c(=O)n4C)cn1 [AZD0156] + CCN(CCO)CCCOc1ccc2c(Nc3cc(CC(=O)Nc4cccc(F)c4)[nH]n3)ncnc2c1 [AZD2811] (first compound max 1 µM, 7x7, partner max 1 µM)
2. CN(CCO)CC[C@H](CSc1ccccc1)Nc1ccc(S(=O)(=O)NC(=O)c2ccc(N3CCC([C@@H](O)c4ccccc4-c4ccc(Cl)cc4)CC3)cc2)cc1S(=O)(=O)C(F)(F)F [AZD4320] + CCN(CCO)CCCOc1ccc2c(Nc3cc(CC(=O)Nc4cccc(F)c4)[nH]n3)ncnc2c1 [AZD2811] (first compound max 1 µM, 7x7, partner max 1 µM)

OUTPUT:
0.0362
0.201

* * *

Tested on: A172 (Glioblastoma)
Assay: Bliss excess, mean over the matrix (fraction); higher = more synergy
Lab note: anything with Bliss excess at or over -0.05 counts as 1; the rest go in 0.

MOLECULE: CCc1c2c(nc3ccc(O)cc13)-c1cc3c(c(=O)n1C2)COC(=O)[C@]3(O)CC [SN-38] + O=C(c1cc(Cc2n[nH]c(=O)c3ccccc23)ccc1F)N1CCN(C(=O)C2CC2)CC1 [Olaparib] (first compound max 0.3 µM, 7x7, partner max 10 µM)
ASSIGNED CATEGORY: 1
//
MOLECULE: CN(CCO)CC[C@H](CSc1ccccc1)Nc1ccc(S(=O)(=O)NC(=O)c2ccc(N3CCC([C@@H](O)c4ccccc4-c4ccc(Cl)cc4)CC3)cc2)cc1S(=O)(=O)C(F)(F)F [AZD4320] + Cc1cc2ncnn2cc1Nc1ncc2c(n1)n(C1CCOCC1)c(=O)n2C [AZD7648] (first compound max 1 µM, 7x7, partner max 10 µM)
ASSIGNED CATEGORY: 0

INPUT: Answer whether Bliss excess of CC1(C)CCC(CN2CCN(c3ccc(C(=O)NS(=O)(=O)c4ccc(NCC5CCOCC5)c([N+](=O)[O-])c4)c(Oc4cnc5[nH]ccc5c4)c3)CC2)=C(c2ccc(Cl)cc2)C1 [Venetoclax] + C[C@@H](Nc1cc(F)cc(F)c1)c1cc(C(=O)N(C)C)cc2c(=O)cc(N3CCOCC3)oc12 [AZD8186] (first compound max 1 µM, 7x7, partner max 3 µM) is greater than or equal to -0.05.
OUTPUT: 1

INPUT: Answer whether Bliss excess of NC1(C(=O)N[C@@H](CCO)c2ccc(Cl)cc2)CCN(c2ncnc3[nH]ccc23)CC1 [Capivasertib] + CC(C)n1c(=O)n(C)c2cnc3cc(F)c(-c4ccc(OCCCN5CCCCC5)nc4)cc3c21 [AZD1390] (first compound max 10 µM, 7x7, partner max 0.3 µM) is greater than or equal to -0.05.
OUTPUT: 0

INPUT: Answer whether Bliss excess of CN(CCO)CC[C@H](CSc1ccccc1)Nc1ccc(S(=O)(=O)NC(=O)c2ccc(N3CCC([C@@H](O)c4ccccc4-c4ccc(Cl)cc4)CC3)cc2)cc1S(=O)(=O)C(F)(F)F [AZD4320] + C1CN(CCC1(C(=O)N[C@@H](CCO)C2=CC=C(C=C2)Cl)N)C3=NC=NC4=C3C=CN4 [Capivasertib] (first compound max 1 µM, 7x7, partner max 3 µM) is greater than or equal to -0.05.
OUTPUT: 0
